Entries and their fold less potent against PfDHODH than the comparable triazolopyrimidine 1 values follow.
- assayTarget: PfDHODH (Plasmodium falciparum)
- assayName: biochemical
- Assay type: biochemical
- runParameters: reduction in binding affinity/activity relative to 1

Sample answers from the record:
Prompt line: Tell me its fold less potent against PfDHODH than the comparable triazolopyrimidine 1 given Cc1nc(Nc2ccc3ccccc3c2)c2nc[nH]c2n1 as the entry.
Response line: ~ 9 fold

Prompt line: State, in one line, measured fold less potent against PfDHODH than the comparable triazolopyrimidine 1 of Cc1cc(Nc2ccc3ccccc3c2)n2ccnc2n1
Response line: 3 fold

Prompt line: Quick one: give measured fold less potent against PfDHODH than the comparable triazolopyrimidine 1 for Cc1cc(Nc2ccc3ccccc3c2)n2nccc2n1
Response line: ~ 8.5 fold

Now, please, on to the next compound.
Prompt line: Retrieve fold less potent against PfDHODH than the comparable triazolopyrimidine 1 measured for Cc1cc(Nc2ccc3ccccc3c2)n2ncnc2c1 and print it.
Response line: 100 fold

###

- assayName: In vitro metabolic stability in human liver microsomes
- Type: in vitro ADME
- runParameters: human, pooled human liver microsomes
reportedMetric: microsomal CLint at 1 μM (µL/min/mg)
Could you give me the number in µL/min/mg? Just the number is fine.

Prompt line: Indicate the recorded microsomal CLint at 1 μM value for this compound: Cc1cc(Nc2ccc(C(F)(F)F)cc2)n2ccnc2n1
Response line: 4.7

###

- assayTarget: PfDHODH (Plasmodium falciparum)
Item-by-item account of IC50

Worked examples follow.
Prompt line: Report IC50 from PfDHODH (Plasmodium falciparum) testing of Cc1cc(NC(=O)c2ccc(C(F)(F)F)cc2)n2ncnc2n1 [Compound 5]
Response line: > 100 µM

Prompt line: State measured IC50 of the compound Cc1nc(Nc2ccc3ccccc3c2)c2cn[nH]c2n1 [Compound 10] with PfDHODH (Plasmodium falciparum).
Response line: > 100 µM

Others:
Prompt line: Using PfDHODH (Plasmodium falciparum) as the test system, report measured IC50 of Cc1nc(Nc2n[nH]cc2C#N)c2nc[nH]c2n1 [Compound 15] .
Response line: > 100 µM

Prompt line: Retrieve IC50 on PfDHODH (Plasmodium falciparum); query Cc1cc(NC(=O)c2ccccc2)n2ncnc2n1 [Compound 4]
Response line: > 100 µM

Prompt line: Please respond with reported IC50 (system PfDHODH (Plasmodium falciparum)) for Cc1nc(Nc2ccc3ncccc3c2)c2nc[nH]c2n1 [Compound 14] .
Response line: > 25 µM

Prompt line: Recall the reported IC50 of Cc1cc(Nc2ccc3ccccc3c2)c2nncn2n1 [Compound 11] when tested on PfDHODH (Plasmodium falciparum).
Response line: > 50 µM

###

- assayName: In vitro metabolic stability in mouse liver microsomes
- Assay type: in vitro ADME
- runParameters: mouse, pooled mouse liver microsomes
reportedMetric: microsomal CLint at 1 μM (µL/min/mg)
// note: answer is a bare numeric in µL/min/mg

Prompt line: Read off the recorded microsomal CLint at 1 μM for Cc1cc(Nc2ccc(C(F)(F)F)cc2)n2ccnc2n1 [Compound 16]
Response line: 34

###

- assayTarget: PfDHODH (Plasmodium falciparum, UniProt Q08210)
- Sequence (Q08210 24-569): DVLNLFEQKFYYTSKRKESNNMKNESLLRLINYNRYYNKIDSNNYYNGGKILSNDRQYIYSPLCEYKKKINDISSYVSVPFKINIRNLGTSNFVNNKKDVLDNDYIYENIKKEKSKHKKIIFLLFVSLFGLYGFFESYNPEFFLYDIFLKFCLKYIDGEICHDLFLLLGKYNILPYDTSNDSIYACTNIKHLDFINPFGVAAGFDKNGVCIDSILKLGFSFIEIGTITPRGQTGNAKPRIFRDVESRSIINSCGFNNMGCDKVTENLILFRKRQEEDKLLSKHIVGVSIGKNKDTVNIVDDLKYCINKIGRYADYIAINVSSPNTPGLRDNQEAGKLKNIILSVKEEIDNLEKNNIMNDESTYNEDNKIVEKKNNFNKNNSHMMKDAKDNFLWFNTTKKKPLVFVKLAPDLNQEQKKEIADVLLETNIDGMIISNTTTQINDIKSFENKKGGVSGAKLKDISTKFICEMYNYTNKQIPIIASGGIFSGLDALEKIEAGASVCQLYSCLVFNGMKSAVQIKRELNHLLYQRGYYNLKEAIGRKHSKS
- assayName: biochemical
- Assay type: biochemical
reportedMetric: PfDHODH activity (in words)

Prompt line: Look up and state reported PfDHODH activity (in words) for Cc1nc(Nc2ccc3ccccc3c2)c2cn[nH]c2n1
Response line: inactivated

Prompt line: Annotate the compound Cc1cc(NC(=O)c2ccccc2)n2ncnc2n1 with its measured PfDHODH activity (in words).
Response line: loss of activity

Prompt line: Answer with the recorded PfDHODH activity (in words) of Cc1cc(NC(=O)c2ccc(C(F)(F)F)cc2)n2ncnc2n1 only.
Response line: loss of activity

Prompt line: Report measured PfDHODH activity (in words); entry is Cc1cc(Nc2ccc3ccccc3c2)c2nncn2n1
Response line: inactivated
